Molecular target: T1, 4H568-bH
T1 chain: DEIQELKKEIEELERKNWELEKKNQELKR
Assay: two-hybrid library CCNG1;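 further: natural log of median RNA to DNA barcode read ratio; higher means stronger binding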
Reported interaction score values for a set of binders
property-measured: interaction score

>  <binder>
DENQELEKENEELERKIWELKKEIQELER [4H1193-bH]

>  <property-measured>
interaction score

>  <meas-value>
-0.254

$$$$
>  <binder>
DEIQELEKKIEELKRKNWELEKEIQELKR [4H370-bH]

>  <property-measured>
interaction score

>  <meas-value>
0.618

$$$$
>  <binder>
DENQELEKENEELKRKIWELKKEIQELER [4H1257-bH]

>  <property-measured>
interaction score

>  <meas-value>
-0.399

$$$$
>  <binder>
DKNQELEKEIEELKRKNWELEKEIQELER [4H3185-bH]

>  <property-measured>
interaction score

>  <meas-value>
-2.61

$$$$
